- ASSAY OVERVIEW: AUClast in monkey at 3 mg/kg, po
- Type: ADME, organism-based, Macaca mulatta
- Set-up: time 0 - last, dose 3 mg/kg, route oral
- STUDY CONDITIONS: rhesus monkey, plasma
ENDPOINT LABEL: AUC(0-t) (ng·h/mL)
Expressed in ng·h/mL, but write only the number.

Exam item: Recall and state the measured AUC(0-t) for "Cn1cc(Cl)c(C(=O)N2CCN(CC(=O)c3ccc(F)cc3)CC2)n1" .
Marked response: 872

----------
- ASSAY OVERVIEW: Toxicity in rat assessed as maximum tolerated dose
- Type: organism-based
- STUDY CONDITIONS: in vivo
ENDPOINT LABEL: MTD (mg/kg)
Expressed in mg/kg, but write only the number.

Exam item: Recall and state the measured MTD for "Cn1cc(Cl)c(C(=O)N2CCN(CC(=O)c3ccc(F)cc3)CC2)n1" .
Marked response: 300

----------
- ASSAY OVERVIEW: Half life in monkey at 3 mg/kg, po
- Type: ADME, organism-based, Macaca mulatta
- Parameters: dose 3 mg/kg, route oral
- STUDY CONDITIONS: rhesus monkey, in vivo
ENDPOINT LABEL: half-life (min)
Expressed in min, but write only the number.

Exam item: Recall and state the measured half-life for "Cn1cc(Cl)c(C(=O)N2CCN(CC(=O)c3ccc(F)cc3)CC2)n1" .
Marked response: 36

----------
Documented concentration at 0.75 h across a set of compounds
- ASSAY OVERVIEW: Drug level in Sprague-Dawley rat plasma at 3 mg/kg, po after 0.75 hrs
- Format: ADME, organism-based
- Parameters: dose 3 mg/kg, route oral
- STUDY CONDITIONS: read-out: Drug uptake
Expressed in ng/mL, but write only the number.

# COMPOUND, MEASUREMENT UNITS, OBSERVED MEASUREMENT
data = [
    ("Cn1cc(Br)c(C(=O)N2CCN(CCc3ccc(F)cc3)CC2)n1", "ng/mL", 8.3),
]

Moving on to another compound below.
Exam item: Recall and state the measured concentration at 0.75 h for COc1ccc(NC(=O)Nc2ccc(F)cc2F)cc1-c1c(Br)cnn1C [NELOTANSERIN] .
Marked response: 488

----------
- ASSAY OVERVIEW: Cmax in dog at 3 mg/kg, po
- Format: ADME, organism-based, Canis lupus familiaris
- Parameters: dose 3 mg/kg, route oral
- STUDY CONDITIONS: in vivo
ENDPOINT LABEL: Cmax (µg/mL)
Expressed in µg/mL, but write only the number.

Exam item: Recall and state the measured Cmax for "Cn1cc(Cl)c(C(=O)N2CCN(CC(=O)c3ccc(F)cc3)CC2)n1" .
Marked response: 1.26

----------
- ASSAY OVERVIEW: Oral bioavailability in dog at 3 mg/kg relative to 2 mg/kg, iv dose
- Type: ADME, organism-based, Canis lupus familiaris
- STUDY CONDITIONS: in vivo
ENDPOINT LABEL: bioavailability (%)
Expressed in %, but write only the number.

Exam item: Recall and state the measured bioavailability for "Cn1cc(Cl)c(C(=O)N2CCN(CC(=O)c3ccc(F)cc3)CC2)n1" .
Marked response: 94

----------
- MEASUREMENT TARGET: 5-hydroxytryptamine receptor 2A (Macaca mulatta, UniProt P50128)
- Sequence (P50128 whole entry): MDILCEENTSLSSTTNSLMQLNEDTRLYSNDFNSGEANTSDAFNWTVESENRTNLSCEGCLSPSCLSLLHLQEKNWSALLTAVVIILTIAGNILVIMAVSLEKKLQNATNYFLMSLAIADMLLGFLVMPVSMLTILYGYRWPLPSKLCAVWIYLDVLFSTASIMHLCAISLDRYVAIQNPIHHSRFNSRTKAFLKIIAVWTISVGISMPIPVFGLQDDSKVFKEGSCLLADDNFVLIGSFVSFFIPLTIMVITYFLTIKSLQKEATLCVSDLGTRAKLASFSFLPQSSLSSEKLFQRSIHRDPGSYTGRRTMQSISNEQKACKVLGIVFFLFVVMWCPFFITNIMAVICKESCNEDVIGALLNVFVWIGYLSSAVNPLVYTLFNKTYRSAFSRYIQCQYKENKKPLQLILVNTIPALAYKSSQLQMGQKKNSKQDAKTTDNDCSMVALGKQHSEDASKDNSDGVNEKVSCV
- ASSAY OVERVIEW: Binding affinity to monkey 5HT2A receptor
ENDPOINT LABEL: Ki (nM)
Expressed in nM, but write only the number.

Exam item: Recall and state the measured Ki for "Cn1cc(Cl)c(C(=O)N2CCN(CC(=O)c3ccc(F)cc3)CC2)n1" .
Marked response: 1.7
